Origin of the recorded values: ChEMBL document CHEMBL1201862

Tested on: HCC 2998
Experiment: NCI tumour cell line growth inhibition, 48 h
Calls of active or inactive are those of the source. Rule as the data show it: active = GI50 up to about 1.1 µM and inactive = higher.
Answer with one of the outcomes given here: true (1) (active), false (0) (inactive)

COMPOUND	STUDY_SYSTEM	ANSWER_LABEL
CC1=C(C(=O)NCc2ccccc2)C(c2ccc(N(C)C)cc2)C(C(=O)NCc2ccccc2)=C(C)N1	HCC 2998	false (0)
O=C1C(c2ccccc2)=C(c2ccccc2)C1(Cl)Cl	HCC 2998	false (0)
COc1cc(/C=C2/SC(c3ccccc3)N(c3ccc(NC(C)=O)cc3)C2=O)cc(OC)c1OC (stereo unspecified)	HCC 2998	false (0)

Which result was noted for this compound in the test: O=C1O[C@H](c2ccc3c(c2)OCO3)[C@H]2CO[C@@H](c3ccc4c(c3)OCO4)[C@@H]12
false (0)

Which result was noted for this compound in the test: CCOc1ccccc1NC(=O)CCc1nnc(S)[nH]1
false (0)

Which result was noted for this compound in the test: Cc1ccccc1OC(C)C(=O)NN1C(=O)CSC1c1ccc(Cl)cc1 (stereo unspecified)
false (0)

Which result was noted for this compound in the test: Clc1ccc(Cc2nc3cc(Cl)c(Cl)cc3n2CC2CCCN3CCCCC23)cc1 (stereo unspecified)
false (0)

Which result was noted for this compound in the test: Cc1c(CNc2ccc(C(=O)NC(CC(=O)O)C(=O)O)cc2)ccc2nc(N)nc(N)c12 (stereo unspecified)
true (1)

Which result was noted for this compound in the test: NC(CCC(=O)O)C(=O)NC(Cc1ccc(N(CCCl)CCCl)cc1)C(=O)O (stereo unspecified)
false (0)

Which result was noted for this compound in the test: N=c1nc2n(cc1F)[C@@H]1O[C@H](CO)[C@@H](O)[C@@H]1O2
false (0)

Which result was noted for this compound in the test: O=C(Nc1cccc(O)c1)C(=O)C1C(=O)NC(=S)NC1=O
false (0)

Which result was noted for this compound in the test: C/C(=N\NC(=N)N)C(CN1CCCCC1)C(c1ccccc1)c1c(O)c2ccccc2oc1=O (stereo unspecified)
false (0)

Which result was noted for this compound in the test: O=C1c2ccccc2-c2c3c(cc4ccnc1c24)OCO3
false (0)

Which result was noted for this compound in the test: C=CC(C)(C)/C=C/c1ccc(O)cc1
false (0)

Which result was noted for this compound in the test: Nc1ccc(N)c2c1C(=O)c1ccccc1C2=O
false (0)

Which result was noted for this compound in the test: CCc1nnc(CC)n1-n1c(Cc2ccccc2)n[nH]c1=O
false (0)

Which result was noted for this compound in the test: Cc1cc(C)cc(NC(N)=S)c1
false (0)

Which result was noted for this compound in the test: CC[C@@H]1CC[C@@H]2[C@H](CC[C@]3(C)[C@@H](OC(C)=O)CC[C@@H]23)[C@H]1COC(C)=O
false (0)

Which result was noted for this compound in the test: COc1ccc(N2C(=O)C3c4[nH]c5ccccc5c4C4CCCCCCC4C3C2=O)cc1 (stereo unspecified)
false (0)

Which result was noted for this compound in the test: CC(C)(O)[C@@H]1CC[C@@]2(C)CCC[C@H](O)[C@H]2C1
false (0)

Which result was noted for this compound in the test: O=C(/C=C/c1ccccc1Cl)c1ccc(Cl)cc1Cl
false (0)

====

Test system: DU-145
Assay: NCI tumour cell line growth inhibition, 48 h
Activity calls are given as the source filed them. Rule as the data show it: active = GI50 up to about 1.1 µM and inactive = higher.
Examples of compounds with documented GI50 follow.

Reference set, count: 3
COMPOUND	ASSAY_METRIC	EXPERIMENTAL_VALUE
Nc1ncnc2c1ncn2C1C=C(CO)C(O)C1O (stereo not given)	GI50	5.69 µM (inactive)
O=S(=O)(O)c1ccc2c(/N=N/c3ccc(Sc4ccc(/N=N/c5c(O)ccc6cc(S(=O)(=O)O)ccc56)cc4)cc3)c(O)ccc2c1	GI50	> 100 µM (inactive)
CCOC(=O)NNC(=O)NCc1ccccc1CNC(=O)NNC(=O)OCC	GI50	> 100 µM (inactive)

Suppose we examine the compound COc1ccc(N2C(=O)c3cc(C)cnc3S2(=O)=O)cc1 ; what GI50 value has been reported?
> 100 µM (inactive)

Suppose we examine the compound N#Cc1c(N)[nH]c(=S)c(C#N)c1-c1cccc(Cl)c1 ; what GI50 value has been reported?
33.3 µM (inactive)

Suppose we examine the compound O=C(NCCN(CCNC(=O)c1cccc(O)c1O)CCNC(=O)c1cccc(O)c1O)c1cccc(O)c1O [TRENCAM] ; what GI50 value has been reported?
6.98 µM (inactive)

Suppose we examine the compound [O-]/[N+](=N/c1ncc(-c2ccccc2)cn1)c1ncc(-c2ccccc2)cn1 ; what GI50 value has been reported?
> 100 µM (inactive)

Suppose we examine the compound CCOC1NC(/N=C/c2ccc(OC)cc2)=C(C#N)C1C#N (stereo not given) ; what GI50 value has been reported?
> 100 µM (inactive)

Suppose we examine the compound CCOP(=O)(OCC)C(C)(CC)N/C(=N\C1=NC(C(F)(F)F)(C(F)(F)F)N=C(C(F)(F)F)O1)NC(NC(C)=O)(C(F)(F)F)C(F)(F)F (stereo not given) ; what GI50 value has been reported?
81.5 µM (inactive)

Suppose we examine the compound N#CC(Nc1ccccc1)c1ccc(C(C#N)Nc2ccccc2)cc1 (stereo not given) ; what GI50 value has been reported?
44.1 µM (inactive)

====

Test system: SNB-78
Assay: NCI tumour cell line growth inhibition, 48 h
Calls of active or inactive are those of the source. Cut-off read from the data, not from the text of the source: active = GI50 up to about 1.1 µM and inactive = higher.
ASSAY_METRIC: GI50

Reference set, count: 3
MOLECULE	GI50
NCc1ccccc1C1CSCSC1	> 100 µM (inactive)
CCOC(=O)/C(=C/c1ccco1)P(=O)(OCC)OCC	> 100 µM (inactive)
COc1ccc(N2C(=O)C3c4[nH]c5ccccc5c4C4CCCCCCC4C3C2=O)cc1 (stereo unspecified)	27.8 µM (inactive)

Suppose we examine the molecule N=S(c1ccccc1[N+](=O)[O-])c1ccccc1[N+](=O)[O-] ; what GI50 value has been reported?
2.68 µM (inactive)

Suppose we examine the molecule O=C(CC1(O)C(=O)Nc2ccccc21)c1ccc2ccccc2c1 (stereo unspecified) ; what GI50 value has been reported?
> 100 µM (inactive)

Suppose we examine the molecule Cc1ccc(/C=N/NS(=O)(=O)c2ccccc2)c(C)c1 ; what GI50 value has been reported?
> 100 µM (inactive)

====

Test system: DLD-1
Assay: NCI tumour cell line growth inhibition, 48 h
The source made the active and inactive calls. Cut-off read from the data, not from the text of the source: active = GI50 up to about 1.1 µM and inactive = higher. Where a SMILES comes first, the peptide text is derived from it. [ ]: non-standard residue; d: D form. The star is where a group is joined. ξ: configuration not given here. X4 = COc1ccc(C(N*)c2ccc(OC)cc2)cc1; NMeF = CN[C@@H](Cc1ccccc1)C(=O)O; NMeD = CN[C@@H](CC(=O)O)C(=O)O; NMeV = CN[C@H](C(=O)O)C(C)C; ξNMeV = CNC(C(=O)O)C(C)C; Boc = CC(C)(C)OC(=O)*; ξNMeA = CNC(C)C(=O)O; ξV = CC(C)C(N)C(=O)O
Examples of molecules with documented GI50 follow.

Reference set, count: 6
MOLECULE	GI50
Cc1c2c(c(C)c3c1[nH]c1ccccc13)CN(C)CC2	34.4 µM (inactive)
CC(=O)c1ccc(OCC(O)CO)cc1 (centres undefined)	45.8 µM (inactive)
c1ccc(C2Nc3ccccc3C3OCCCC23)cc1 (centres undefined)	18.9 µM (inactive)
COC(=O)[C@]1(C)CCC[C@]2(C)C3CC4OOC3(C=C4C(C)C)CCC21 (some centres undefined)	12.7 µM (inactive)
COC1=C2CC(C)CC(OC)C(O)C(C)/C=C(\C)C(OC(N)=O)C(OC)/C=C\C=C(/C)C(=O)NC(=C(/C=N/N3CCCCC3)C1=O)C2=O (centres undefined)	8.47 µM (inactive)
Cc1cccc(C)c1NC(=O)CCc1nnc(S)[nH]1	> 100 µM (inactive)

Suppose we examine the molecule Cc1nc2c(n1-c1ccccc1)C(=O)c1ccccc1C2=O ; what GI50 value has been reported?
48.5 µM (inactive)

Suppose we examine the molecule CC1=C(C(=O)NCc2ccccc2)C(c2ccc(N(C)C)cc2)C(C(=O)NCc2ccccc2)=C(C)N1 ; what GI50 value has been reported?
> 100 µM (inactive)

Suppose we examine the molecule COc1cc(C2c3cc4c(cc3[C@@H](Nc3ccc(F)cc3)C3COC(=O)[C@H]23)OCO4)cc(OC)c1O (some centres undefined) ; what GI50 value has been reported?
3.79 µM (inactive)

Suppose we examine the molecule COC(=O)c1c(CC(=O)OC(C)C)cc2n(c1=O)Cc1c-2nc2ccccc2c1OC ; what GI50 value has been reported?
> 100 µM (inactive)

Suppose we examine the molecule COc1ccc(C(NC(=O)C[C@@H](C(=O)N(C)C(C)C(=O)O)N(C)C(=O)[C@@H]2CCCN2C(=O)[C@H](C(C)C)N(C)C(=O)C(C(C)C)N(C)C(=O)[C@H](Cc2ccccc2)N(C)C(=O)C(NC(=O)OC(C)(C)C)C(C)C)c2ccc(OC)cc2)cc1 (some centres undefined) (Boc-[ξV][NMeF][ξNMeV][NMeV]P[NMeD](X4)[ξNMeA]-OH) ; what GI50 value has been reported?
18 µM (inactive)

Suppose we examine the molecule CCOC(=O)C(Cc1ccc([N+](=O)[O-])cc1)NC(=O)CC1c2ccccc2-c2ccccc21 (centres undefined) ; what GI50 value has been reported?
> 100 µM (inactive)

Suppose we examine the molecule CC(C)(C)c1nc2c(o1)/C(=N\c1ccc(F)cc1)c1ccccc1C2=O ; what GI50 value has been reported?
4.11 µM (inactive)

Suppose we examine the molecule CC(C)(O)[C@@H]1CC[C@@]2(C)CCC[C@H](O)[C@H]2C1 ; what GI50 value has been reported?
> 100 µM (inactive)

Suppose we examine the molecule Clc1ccc(CCn2cncn2)cc1 ; what GI50 value has been reported?
> 100 µM (inactive)

Suppose we examine the molecule COc1cccc(-c2nc3c(C(=O)NCCN(C)C)cccc3[nH]2)c1 ; what GI50 value has been reported?
18.5 µM (inactive)

Suppose we examine the molecule CCOC(=O)C1=C(C(C)=O)CSC(c2ccccc2)=N1 ; what GI50 value has been reported?
> 100 µM (inactive)

Suppose we examine the molecule NC(=O)/C=C/c1c[nH]c2nccnc12 ; what GI50 value has been reported?
2.13 µM (inactive)

Suppose we examine the molecule O=S(=O)(c1ccccc1)C1(C2(S(=O)(=O)c3ccccc3)CCN=N2)CCN=N1 (centres undefined) ; what GI50 value has been reported?
> 100 µM (inactive)
